log10(Ki) values by entry
target-desc: UniProt:P00376
Sequence (P00376 whole entry): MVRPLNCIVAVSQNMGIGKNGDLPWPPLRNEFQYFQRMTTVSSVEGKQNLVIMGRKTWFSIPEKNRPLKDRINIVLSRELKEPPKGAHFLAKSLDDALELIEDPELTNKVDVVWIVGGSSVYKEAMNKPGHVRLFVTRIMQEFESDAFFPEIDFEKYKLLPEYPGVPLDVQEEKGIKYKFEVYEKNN
quantity-name: log10(Ki) (log10 of the value in µM)

Nc1ncc(Cc2cccc(O)c2)c(N)n1
1.12
Nc1ncc(Cc2cccc(CO)c2)c(N)n1
0.80
COCc1cccc(Cc2cnc(N)nc2N)c1
0.51
COCCOc1c(OC)cc(Cc2cnc(N)nc2N)cc1OC
1.12
Nc1ccc(Cc2cnc(N)nc2N)cc1
1.43
Nc1ncc(Cc2cccc(I)c2)c(N)n1
-0.15
CCCCOc1ccc(Cc2cnc(N)nc2N)cc1
0.26
COc1ccc(Cc2cnc(N)nc2N)cc1OC
0.85
